Data origin, for the record: paper PMC9926489

system-under-test: LasB (P. aeruginosa PAO1 culture supernatant) (Pseudomonas aeruginosa, UniProt P14756)
Construct: The mature LasB protein is a 33 kDa metalloprotease, which is secreted from P. aeruginosa; endogenous in cells; host or cells: P. aeruginosa PAO1 culture supernatant, filtered and dialyzed
Sequence (P14756 198-498): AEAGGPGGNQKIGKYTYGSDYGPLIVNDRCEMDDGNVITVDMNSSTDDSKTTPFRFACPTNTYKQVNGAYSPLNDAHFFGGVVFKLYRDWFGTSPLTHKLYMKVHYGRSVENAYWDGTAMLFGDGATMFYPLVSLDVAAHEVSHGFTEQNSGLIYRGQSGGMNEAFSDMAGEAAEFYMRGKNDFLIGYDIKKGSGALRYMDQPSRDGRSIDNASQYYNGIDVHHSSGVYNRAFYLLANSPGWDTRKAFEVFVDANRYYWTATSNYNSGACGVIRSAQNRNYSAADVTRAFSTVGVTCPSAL
test-method-notes: Elastin Congo Red (ECR) assay, elastin hydrolysis by dialyzed PAO1 culture supernatant
Format: biochemical
run-conditions: 25 μM inhibitor
measured-endpoint: Elastin hydrolysis @ 25 μM (% inh)
Give the number; % inh is assumed, so skip it.

See these solved cases before continuing.
CN1CCN(c2ccc3nc(CNC(=O)C4(CC(=O)O)Cc5ccccc5C4)sc3c2)CC1	39
C[N+]1(C)CCN(c2ccc3nc(CNC(=O)C4(CC(=O)O)Cc5ccccc5C4)sc3c2)CC1	33
O=C(O)CC1(C(=O)NCc2nc3ccccc3s2)Cc2ccccc2C1	69

Looking for the measured Elastin hydrolysis @ 25 μM (% inh) of CN(C)CCOc1ccc2sc(CNC(=O)C3(CC(=O)O)Cc4ccccc4C3)nc2c1 , can you help?
42

Could you do the same for COc1cc2sc(CNC(=O)C3(CC(=O)O)Cc4ccccc4C3)nc2cc1OCCCN(C)C , please?
69

Could you do the same for COc1cc2sc(CNC(=O)C3(CC(=O)O)Cc4cc(F)c(F)cc4C3)nc2cc1OCC1CC[N+](C)(C)CC1 , please?
72

Could you do the same for C[N+](C)(C)CCOc1ccc2sc(CNC(=O)C3(CC(=O)O)Cc4ccccc4C3)nc2c1 , please?
40

Could you do the same for COc1cc2nc(CNC(=O)C3(CC(=O)O)Cc4ccccc4C3)sc2cc1OC , please?
82

---

Parameter: pIC50. Scope: all listed entries.
system-under-test: purified LasB (Pseudomonas aeruginosa, UniProt P14756)
Construct: The mature LasB protein is a 33 kDa metalloprotease, which is secreted from P. aeruginosa; host or cells: P. aeruginosa PAO1 (native secretion, culture supernatant)
Sequence (P14756 198-498): as above
test-method-notes: Inhibition of LasB-mediated proteolysis of human serum IgG (SDS-PAGE)
Type: biochemical, P. aeruginosa
Give only the number. pIC50 is defined as minus log10 of concentration in molar units.

COc1cc2sc(CNC(=O)C3(CC(=O)O)Cc4ccccc4C3)nc2cc1OCCC[N+](C)(C)C	5.59

Now look at this entry.
Looking for the measured pIC50 of COc1cc2sc(CNC(=O)C3(CC(=O)O)Cc4cc(F)c(F)cc4C3)nc2cc1OCCC[N+](C)(CCO)CCO , can you help?
5.89

---

system-under-test: LasB Q71L (Pseudomonas aeruginosa, UniProt P14756)
Construct: endogenous in cells
Sequence (P14756 198-498, stated change not applied): as the sequence (P14756 198-498) above
test-method-notes: LasB variant inhibition, culture supernatant: Q71L
Protocol: Compounds 12 and 16 were discovered as a result of optimizing potency against the LasB protein expressed from the wild-type (WT) reference strain P. aeruginosa PAO1. […] LasB inhibition assays were performed using purified LasB enzyme (1 ng/well) for compound screening or using culture supernatants (prepared as described in the ECR assay) for testing LasB variants. […] IC50 values were determined from Hill plots using Dotmatics Studies ELN software. […]
Parameter: IC50. Scope: all listed entries.
Give the number; µM is assumed, so skip it.

COc1cc2sc(CNC(=O)C3(CC(=O)O)Cc4cc(F)c(F)cc4C3)nc2cc1OCCC[N+](C)(CCO)CCO [Compound 16]	0.177

Now look at this entry.
Looking for the measured IC50 of COc1cc2sc(CNC(=O)C3(CC(=O)O)Cc4ccccc4C3)nc2cc1OCCC[N+](C)(C)C [Compound 12] , can you help?
0.214
